Examples of binders with documented pIC50 follow.
- target.of.assay: T1, TSP-1 protein (novoprotein, Catalog No. CU45) (UniProt P07996 19-1170, limits assumed)
- T1 construct: Bought protein coated on the ELISA plate; also called Thrombospondin-1
- method.summary: competition ELISA, TSP-1 coated, CD36-Fc as competitor, peptide 0-100 µM
Friendly reminder that pIC50 comes from taking -log10 of the concentration in mol/L.

Example entries begin here.
binder | pIC50
Ac-QDAEDNTAS-NH2 [SEQ ID NO: 23] | 4.64
Ac-TQDAEDNTQD-NH2 [SEQ ID NO: 49] | 4.99
TQDPEDNTAS (Head-to-tail cyclization, cyclic peptide) [SEQ ID NO: 46] | 5.85
QDAEDNT (Head-to-tail cyclization, cyclic peptide; also called QDAEDNT; cyclo[Gln-Asp-Ala-Glu-Asp-Asn-Thr]) [SEQ ID NO: 45] | 5.22
Ac-TQDAEDNT-NH2 [SEQ ID NO: 15] | 5.25

// query Any idea what its pIC50 is? The binder is YRVRFLAKENVTQDAEDN (Printed as 'Without modification'; also called Positive control group) [SEQ ID NO: 50]
// result 4.97

// query Any idea what its pIC50 is? The binder is Ac-TQDAEDPTA-NH2 [SEQ ID NO: 22]
// result 5.14

// query Any idea what its pIC50 is? The binder is TQDAEDN (Head-to-tail cyclization, cyclic peptide; also called TQDAEDN; cyclo[Thr-Gln-Asp-Ala-Glu-Asp-Asn]) [SEQ ID NO: 40]
// result 5.11

// query Any idea what its pIC50 is? The binder is Ac-TQDPEDNTAS-NH2 [SEQ ID NO: 26]
// result 5.47

// query Any idea what its pIC50 is? The binder is Ac-TQDAEDPTAS-NH2 [SEQ ID NO: 25]
// result 5.13

// query Any idea what its pIC50 is? The binder is Ac-TQDAEDN-NH2 (also called TQDAEDN) [SEQ ID NO: 06]
// result 4.90

// query Any idea what its pIC50 is? The binder is Ac-TQDPEDN-NH2 (also called TQDPEDN) [SEQ ID NO: 14]
// result 5.32

// query Any idea what its pIC50 is? The binder is Ac-TQDAEDNTAS-NH2 [SEQ ID NO: 24]
// result 4.97

// query Any idea what its pIC50 is? The binder is Ac-TQDAEDNTVSFLQ-NH2 [SEQ ID NO: 36]
// result 5.31

// query Any idea what its pIC50 is? The binder is Ac-TQDAEDNTASH-NH2 [SEQ ID NO: 33]
// result 4.84

// query Any idea what its pIC50 is? The binder is Ac-TQDPAEDN-NH2 [SEQ ID NO: 48]
// result 4.93
